Conditions: buffer; pH 7.4; 200.0 µM
Decide using solubility kinetic: a value greater than or equal to 10 µg/mL is Yes, a smaller one is No.

* CC(NC(=O)COC(=O)c1ccc[nH]c1=O)c1ccccc1 (centres undefined) | Yes
* Cc1cc(=O)n(C(C)(C)C)c(=O)n1Cc1ccccc1 | Yes
* O=C(NCCO)C(=O)Nc1cc2c3c(c1)CCN3C(=O)CC2 | Yes
* CC(C)NC(=O)CNc1ccc(C(F)(F)F)cc1[N+](=O)[O-] | Yes
* S=C1SCN(CC2CC2)CN1CC1CC1 | Yes
* COc1cc(OC)c(C(=O)OCC(=O)NC2CCCC2)cc1OC | Yes
* NS(=O)(=O)c1cccc(NC(=O)c2ccc(NS(=O)(=O)c3cccc([N+](=O)[O-])c3)cc2)c1 | Yes
* O=C(CNC(=O)c1ccco1)Nc1ccc(OC(F)F)cc1 | Yes
* Fc1ccccc1CSCc1nc2ccccc2[nH]1 | Yes
* O=C(Nc1ccccc1N1CCOCC1)C1CCCO1 (centres undefined) | Yes
* CCCCN(C)Cc1cc(=O)oc2ccc3ccccc3c12 | No
* CCC(C(=O)Nc1c(C)cc(C)cc1C)N1CCCCCC1 (centres undefined) | Yes
* COc1cc(CN=Cc2c(O)n(C(C)(C)C)c(=O)[nH]c2=O)cc(OC)c1 | No
* COc1ccc(-c2[nH]ncc2CNC(C)Cc2cccc(C)n2)cc1F (centres undefined) | Yes
* O=C(NCCN1CCOCC1)c1ccccc1Cl | Yes
* COc1cc(/C=C/c2onc(C)c2[N+](=O)[O-])cc(OC)c1OC | No
* Cc1cc(C)c(C(=O)NCC(=O)c2ccccc2)c(C)c1 | No
* Cn1c(NN)nc2ccccc2c1=O | Yes
* COc1ccc(/C=C/C(=O)O)cc1S(=O)(=O)N1CCC(C)CC1 | Yes
* Cc1ccc(OCC(=O)N(Cc2ccccc2)c2ccccn2)cc1 | Yes
* C=CCNC(=O)C12CCC(C)(C(=O)[C@H]1Br)C2(C)C (some centres undefined) | Yes
* N#CC1=C(N)Oc2cc(N)ccc2C1c1ccccc1F (centres undefined) | No
* Cc1cc(C)cc(C(=O)NCC(=O)OCC(=O)NC2CCCc3ccccc32)c1 (centres undefined) | No
* CC(=O)Nc1nccc(-c2cc(-c3ccccc3)no2)n1 | No
